Assay: Blood-to-plasma partition ratio in human blood
Assay type: in vitro ADME
Settings: human whole blood (K2EDTA as anticoagulant), control compounds, 37°C, 60 minutes incubation, LC/MS/MS, read-out: Blood-to-plasma partition ratio (BPR)
Protocol: In vitro measurement of blood-to-plasma partition was conducted in human blood (K2EDTA as anticoagulant) obtained from a commercial source (BioReclamation IVT, Liverpool, NY). Hematocrit (the ratio of volume of red blood cells to total blood) was measured by centrifugation of the whole blood at 3000 rpm for 10 minutes using microhematocrit capillary tubes. Control plasma was prepared from a portion of the whole blood by centrifugation at 3000g for 10 minutes. […]
Reported blood plasma ratio at 60 min by item:

| Compound | Measured value |
| --- | --- |
| COCCc1ccc(OCC(O)CNC(C)C)cc1 (centres unmarked) | ~40 |

Now turn to the next compound.
So, CC(=O)/N=c1/sc(S(N)(=O)=O)nn1C [methazolamide] ? Its blood plasma ratio at 60 min was ~1
